Values compiled from patent US20030229005A1.

Biological target: T1, human Gelatinase-A (human, UniProt P08253 110-660, limits assumed)
T1 sequence (looked up): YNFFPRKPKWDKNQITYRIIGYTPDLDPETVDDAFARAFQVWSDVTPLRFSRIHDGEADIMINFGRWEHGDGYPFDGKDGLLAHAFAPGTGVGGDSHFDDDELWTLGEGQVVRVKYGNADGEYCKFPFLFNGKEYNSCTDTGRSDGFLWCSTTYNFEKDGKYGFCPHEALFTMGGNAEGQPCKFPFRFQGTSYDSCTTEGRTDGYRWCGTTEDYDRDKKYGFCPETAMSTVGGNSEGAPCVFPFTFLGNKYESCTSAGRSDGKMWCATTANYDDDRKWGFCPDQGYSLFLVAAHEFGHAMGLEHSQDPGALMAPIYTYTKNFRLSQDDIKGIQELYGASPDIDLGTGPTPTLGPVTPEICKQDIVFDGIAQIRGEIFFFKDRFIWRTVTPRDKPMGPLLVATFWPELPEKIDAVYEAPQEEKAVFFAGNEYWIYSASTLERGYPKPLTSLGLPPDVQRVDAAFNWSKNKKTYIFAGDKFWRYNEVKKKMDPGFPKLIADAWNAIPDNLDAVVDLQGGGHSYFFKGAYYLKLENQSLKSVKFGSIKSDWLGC
Assay: cell-based or functional assay
*1 amine or outer side, *2 acyl side, *3 side chain or, on linkers, in order; H or OH if unused. [ ]: non-standard residue; d: D form. The star is where a group is joined. Dnp = O=[N+]([O-])c1ccc(*)c([N+](=O)[O-])c1; C(Me) = CSC[C@H](N[*:1])C(=O)[*:2]
quantity: Selectivity v. Coll-3 (unitless)
Numbers only, in unitless.

[[record]]
binder = "Dnp-GPAPLHG[C(Me)]-NH2 (SMILES CSC[C@H](NC(=O)CNC(=O)[C@H](Cc1c[nH]cn1)NC(=O)[C@H](CC(C)C)NC(=O)[C@@H]1CCCN1C(=O)[C@H](C)NC(=O)[C@@H]1CCCN1C(=O)CNc1ccc([N+](=O)[O-])cc1[N+](=O)[O-])C(N)=O) [Dnp-GPAPLHGC(Me)-NH2]"
obsvalue = 12


Name the recorded Selectivity v. Coll-3 for Dnp-GPLPFRV[C(Me)]-NH2 (SMILES CSC[C@H](NC(=O)[C@@H](NC(=O)[C@H](CCCNC(=N)N)NC(=O)[C@H](Cc1ccccc1)NC(=O)[C@@H]1CCCN1C(=O)[C@H](CC(C)C)NC(=O)[C@@H]1CCCN1C(=O)CNc1ccc([N+](=O)[O-])cc1[N+](=O)[O-])C(C)C)C(N)=O) [Dnp-GPLPFRVC(Me)-NH2] .
36
